# tested target: T1, NPNA8 peptide (Plasmodium falciparum (isolate 3D7)., not fully specified)
# T1 construct: source: synthetic peptide (InnoPep Inc)
# T1 chain: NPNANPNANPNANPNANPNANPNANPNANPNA
# assay remarks: BLI
# measurement setup: both partners purified
# key: entry, value: kon
readout name: kon (M⁻¹ s⁻¹)

364 Fab (Fab, V domains shown, also called mAb 364; source: ExpiCHO cells, purified (mAb Select PrismA or Capture Select, SEC)) VH: QVQLVESGGGVVQPGGSLRLSCAASGFTFSGYGMHWVRQVPGKGLEWVAIIWFDGSQKYYADSVQGRFTISRDNSKKTLFLRMNSLRAEDTAVYYCAKVHDDEPTQDYWGQGTLVTVSS VL: DIQMTQSPSTLSASVGDRVTITCRASQGISTSLAWYQQKPGKAPKLLIYKASSLESGVPSRFSGSGSGTEFTLTITSLQPEDFATYYCQQYKRYWTFGQGTKVEIK	65000
311 Fab (Fab, V domains shown, also called mAb 311; source: ExpiCHO cells, purified (mAb Select PrismA or Capture Select, SEC)) VH: QVQLVESGGGVVPPGRSLRLSCATSGFTFSNYGMHWVRQAPGKGLEWVAIIWYDGSRNFYAASVEGRFTISRDNSKNTLYLQMNSLRVEDTAVYYCARAAYYDTSGYGDYWGQGTLVTVSS VL: QSVLTQPPSVSGAPGQTVTISCTGGSSNIGAGYDVHWYQQLPGTAPKLLIYGNINRPSGVPDRFSGSKSGTSASLAITGLQAEDEADYYCQSYDRRLSGSWVFGGGTKLTVL	66000
